- Test system: LPS-stimulated TNF-α production in rat alveolar macrophages (NR8383)
- experimental.protocol: Inhibition of LPS-stimulated TNF-α production in rat alveolar macrophages (NR8383), TNF ELISA
- Format: cell-based
- condition: Macrophage, NR8383 cells, co-treated with 25 ng/mL LPS, 20 h
endpoint: pIC50
FYI, pIC50 means -log10 of a concentration in mol per litre.

Problem: // pIC50 lookup, key: COc1c(C)c2c(c(O)c1C/C=C(\C)CCC(=O)O)C(=O)OC2 [mycophenolate sodium]
Result: 5.82

* * *

- System: LPS-stimulated TNF-α production in THP-1 derived human macrophages
- experimental.protocol: Inhibition of LPS-stimulated TNF-α production in human THP-1 derived macrophages, TNF ELISA
- Type: cell-based
- condition: 4 h pre-incubation, then 100 pg/mL LPS for 16 h
endpoint: IC50 (nM)
Enter your answer as a number in nM; do not include the unit.

Problem: Could you share which IC50 value was measured for COc1c(C)c2c(c(O)c1C/C=C(\C)CCC(=O)O)C(=O)OC2 [mycophenolate sodium] ?
Result: 1400
